- Test system: B16F10
- protocol description: Cell uptake assay, B16F10 cells
- Format: cell-based, mouse
- condition summary: 100 uM, 1 hour
experimental endpoint: Cell uptake, Mean, B16F10 (ng/10^6 cell)
// note: answer is a bare numeric in ng/10^6 cell

[Q] Please report Cell uptake, Mean, B16F10 for the following compound: N[C@@H](Cc1ccc(F)c(OCB(O)O)c1)C(=O)O [compound 11]
[A] 50.6

[Q] Supply Cell uptake, Mean, B16F10 value. Item: N[C@@H](Cc1ccc(C2(B(O)O)CC2)cc1)C(=O)O [compound 15]
[A] 193

[Q] Return Cell uptake, Mean, B16F10 for the following compound: NC(Cc1ccc(OCB(O)O)cc1)C(=O)O (centres unmarked) [compound 4]
[A] 46.1

[Q] Answer with the recorded Cell uptake, Mean, B16F10 of N[C@@H](Cc1ccc(OCB(O)O)cc1F)C(=O)O [compound 2] only.
[A] 151

[Q] Quick one: give measured Cell uptake, Mean, B16F10 for N[C@@H](Cc1ccc(OCCB(O)O)cc1)C(=O)O [compound 3]
[A] 145

[Q] Specify reported Cell uptake, Mean, B16F10 for the compound shown: N[C@@H](Cc1cc(F)cc(OCB(O)O)c1)C(=O)O [compound 13]
[A] 180

[Q] Return Cell uptake, Mean, B16F10 (reported value) for this compound: N[C@@H](Cc1cccc(OCB(O)O)c1)C(=O)O [compound 1]
[A] 112

[Q] Given the compound NC(Cc1ccc(CCB(O)O)cc1F)C(=O)O (single isomer, unassigned) [compound 8] , write its reported Cell uptake, Mean, B16F10.
[A] 26.9

* * *

- Test system: B16F10
- protocol description: Cell uptake assay, B16F10 cells
- Format: cell-based, mouse
- condition summary: 100 uM, 4 hours
Exercise: state measured Cell uptake, Mean, B16F10 for each of the compounds provided.
// units = ng/10^6 cell; emit number, no label

[Q] Look up and report measured Cell uptake, Mean, B16F10 for this entry: NC(Cc1ccc(CCB(O)O)cc1F)C(=O)O (single isomer, unassigned) [compound 9]
[A] 66.7

[Q] For the compound "N[C@@H](Cc1ccc(OCCB(O)O)cc1)C(=O)O" , report Cell uptake, Mean, B16F10.
[A] 222

[Q] Identify Cell uptake, Mean, B16F10 associated with the compound "N[C@@H](Cc1cccc(CCB(O)O)c1)C(=O)O"
[A] 157

[Q] Indicate the recorded Cell uptake, Mean, B16F10 value for this compound: NC(Cc1ccc(OCB(O)O)cc1)C(=O)O (centres unmarked)
[A] 95.6

[Q] Give a short answer stating reported Cell uptake, Mean, B16F10 for "N[C@@H](Cc1cc(F)cc(OCB(O)O)c1)C(=O)O" .
[A] 310

[Q] Identify Cell uptake, Mean, B16F10 associated with the compound "N[C@@H](Cc1ccc(F)c(OCB(O)O)c1)C(=O)O"
[A] 121

[Q] Identify measured Cell uptake, Mean, B16F10 corresponding to "N[C@@H](Cc1cccc(OCB(O)O)c1)C(=O)O"
[A] 232

[Q] Recall and state the measured Cell uptake, Mean, B16F10 for "N[C@@H](Cc1ccc(OCCB(O)O)cc1F)C(=O)O" .
[A] 92.3

[Q] Consider the compound "N[C@@H](Cc1ccc(OCB(O)O)c(F)c1)C(=O)O" . State its measured Cell uptake, Mean, B16F10.
[A] 442

[Q] Given NC(Cc1ccc(CCB(O)O)cc1F)C(=O)O (single isomer, unassigned) [compound 8] , respond with its Cell uptake, Mean, B16F10.
[A] 31.4

[Q] Consider the compound "N[C@@H](Cc1ccc(OCB(O)O)cc1F)C(=O)O" . State its measured Cell uptake, Mean, B16F10.
[A] 333
